assay: E. coli acrAB mutant growth effects, primary screen, E. coli filamentation inducers, strain DRC39, OD650, 48 h (AID 1179);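 note: screen aims at cell division blockers that make cells filament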; conditions: E. coli DRC39 delta-acrAB growth, higher = more signal, called active from +8 up or from −8 down
Threshold check on z-score: at or above -0.5 gives Met, strictly below gives Not met.

Take a look at these entries with their results.
[
  {
    "Compound": "C[C@@H]1ON(c2ccc(I)cc2)[C@H](c2ccc(OC(=O)OC(C)(C)C)cc2)[C@H]1C(=O)N1C(=O)OC[C@H]1Cc1ccccc1",
    "Cat": "Met"
  },
  {
    "Compound": "COCCOC(=O)N1C(=O)[C@@]2(c3cc(C#CCCO)ccc31)[C@H](C(N)=O)[C@H]1C(=O)O[C@H](c3ccccc3)[C@H](c3ccccc3)N1[C@@H]2c1ccc(OCCO)cc1",
    "Cat": "Met"
  },
  {
    "Compound": "COc1ccc([Si](C)(C)[C@H]2[C@H](CC(=O)N3CCC[C@H]3CO)O[C@@]3(C(=O)N(Cc4ccc(N5CCC5=O)cc4)c4ccccc43)[C@@H]2C)cc1",
    "Cat": "Not met"
  },
  {
    "Compound": "O=C1N[C@@H](Cc2ccccc2)C(=O)N2[C@@H]1C[C@@H](C(=O)O)[C@H]2c1ccc(O)cc1",
    "Cat": "Not met"
  },
  {
    "Compound": "COc1ccc([Si](C)(C)[C@H]2[C@H](CCO)O[C@@]3(C(=O)N(Cc4ccccc4)c4ccc(N5CCOC5=O)cc43)[C@@H]2C)cc1",
    "Cat": "Met"
  }
]

Identify whether the reported z-score of the following compound is -0.5 or greater: CC1(C)C(=O)C(c2ccccc2)=C2CN3C(=O)N(CCc4ccccc4)C(=O)C3(Cc3ccc(F)cc3)C=C21 (configuration not stated) Not met

Identify whether the reported z-score of the following compound is -0.5 or greater: COc1cc2c(cc1O)C(c1cccs1)N(Cc1sc3ccccc3c1Cl)CC2 (configuration not stated) Not met

Identify whether the reported z-score of the following compound is -0.5 or greater: C=C(COC)C(=O)CC[C@@H](OC(=O)c1cccnc1)c1ccccc1OCCO Met

Identify whether the reported z-score of the following compound is -0.5 or greater: C=CCC(OC(C)=O)[C@@H]1[C@@H](N(Cc2ccc(-c3cccc(C(F)(F)F)c3)o2)C(=O)Cc2ccc(OC)cc2)c2cc(OCCCO)ccc2N1C(=O)Cc1ccc2ccccc2c1 (some centres not stated) Met

Identify whether the reported z-score of the following compound is -0.5 or greater: COc1cc(CO)cc(I)c1O[C@H]1C=C(C(=O)NCCO)C[C@@H](NCC2CCCCC2)[C@@H]1O Met

====

target: E3 ubiquitin-protein ligase XIAP (Homo sapiens) (UniProt P98170); experiment: XIAP binders, primary screen, biophysical, small-molecule microarray, fluorescence 635 nm (AID 1181); conditions: small-molecule microarray binding, higher = more signal;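 note: score merges 667 nm emission and signal to noise over triplicate slides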
Sequence (P98170 whole entry, looked up): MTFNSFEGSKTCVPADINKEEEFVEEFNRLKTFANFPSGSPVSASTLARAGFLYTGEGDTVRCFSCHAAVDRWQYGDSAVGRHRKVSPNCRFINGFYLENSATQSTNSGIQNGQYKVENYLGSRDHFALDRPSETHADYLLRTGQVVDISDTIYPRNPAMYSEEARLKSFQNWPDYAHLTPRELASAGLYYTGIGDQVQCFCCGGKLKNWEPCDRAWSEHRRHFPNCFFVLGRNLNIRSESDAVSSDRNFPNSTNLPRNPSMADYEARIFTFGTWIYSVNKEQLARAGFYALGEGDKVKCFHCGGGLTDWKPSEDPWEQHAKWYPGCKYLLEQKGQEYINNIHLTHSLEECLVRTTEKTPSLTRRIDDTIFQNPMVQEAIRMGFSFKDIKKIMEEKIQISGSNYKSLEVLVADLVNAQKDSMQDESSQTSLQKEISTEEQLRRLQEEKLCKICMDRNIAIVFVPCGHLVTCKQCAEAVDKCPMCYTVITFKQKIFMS
Hi there, I'd appreciate the recorded composite z-score for every entry that follows.
One number for each entry.

[
  {
    "Compound": "Cc1nc2cc(Br)ccc2c(=O)n1Cc1cccc(O)c1",
    "Observed": 0.0674
  }
]

// for each compound in input: emit composite z-score
1. COCCOC(=O)N1C(=O)[C@@]2(c3ccccc31)[C@H](c1ccccc1OCCO)N1[C@H](c3ccccc3)[C@H](c3ccccc3)OC(=O)[C@H]1[C@@H]2C(=O)N1CCCCCCC1
2. CCOC(=O)C[C@H]1[C@H](OC(=O)c2ccccc2-c2ccccc2)[C@@H](NC(=O)c2ccc3ccccc3n2)c2cc(OCCCO)ccc2N1C(=O)c1ccccc1
3. C=C(C)C1CCC(C(O)C2C=CC3C(=O)N(C)C(=O)C3N2Nc2cc(OC)c(OC)c(OC)c2)CC1 (centres undefined)

1: 1.57; 2: 0.0153; 3: 0.153

Entry source: PubChem BioAssay
